Entries annotated with measured solubility at 30 min
# test.description: Solubility measurement (HPLC)
# Assay type: physicochemical
# condition: buffer solution (pH 7.6), 25 °C, pH 7.6, aqueous buffer, thermodynamic from solid; read-out: Solubility at pH 7.6

>  <smiles.string>
C#Cc1cccc(Nc2ncnc3cc(O[C@H]4CCOC4)c(NC(=O)/C=C/CN(CC)CC)cc23)c1

>  <measurement.units>
µg/mL

>  <solubility at 30 min>
238

$$$$
>  <smiles.string>
C#Cc1cccc(Nc2ncnc3cc(O[C@H]4CCOC4)c(NC(=O)/C=C/CN(C)C)cc23)c1

>  <measurement.units>
µg/mL

>  <solubility at 30 min>
25

$$$$

###

# System: NCI—H1975
# test.description: Cell proliferation assay (MTT), NCI-H1975
# Type: cell-based
# condition: Homo sapiens, NCI—H1975 cells, 72 hours, read-out: potency (IC50), NCI—H1975 cell assay
Entries annotated with measured IC50

>  <smiles.string>
C#Cc1cccc(Nc2ncnc3cc(O[C@H]4CCOC4)c(NC(=O)/C=C/CN(CC)CC)cc23)c1

>  <IC50>
< 10 µM

$$$$
>  <smiles.string>
C#Cc1cccc(Nc2ncnc3cc(O[C@H]4CCOC4)c(NC(=O)/C=C/CN(C)C)cc23)c1

>  <IC50>
< 10 µM

$$$$

###

# Tested on: A549
# test.description: Cell proliferation assay (MTT), A549
# Type: cell-based
# condition: Homo sapiens, A549 cells, 72 hours, read-out: potency (IC50), A549 cell assay
# Experimental: A Representative Number of Compounds were Assayed Against Different Cancer Cell Lines Such as A431, BT474, NCI—H1975, SK—OV-3, SK—Br-3 and A549 Using the Cell Proliferation Assays: 1. 5×10^3 cells per well in 100 μl of medium were seeded in 96-well plate, here the medium contained 5% FBS 2. 24 hours later, 100 μl fresh medium was added with various concentrations of compounds into each well, while the medium here was free of FBS. 3. […] 5. The absorbance at 570 nm was measured on the plate reader.
value.type: IC50

>  <smiles.string>
C#Cc1cccc(Nc2ncnc3cc(O[C@H]4CCOC4)c(NC(=O)/C=C/CN(CC)CC)cc23)c1

>  <tested.system>
A549

>  <value.type>
IC50

>  <readout.value>
< 10 µM

$$$$
>  <smiles.string>
C#Cc1cccc(Nc2ncnc3cc(O[C@H]4CCOC4)c(NC(=O)/C=C/CN(C)C)cc23)c1

>  <tested.system>
A549

>  <value.type>
IC50

>  <readout.value>
< 10 µM

$$$$

###

# test.description: Solubility measurement (HPLC)
# Format: physicochemical
# condition: aqueous buffer, thermodynamic from solid; pH 6.8 buffer solution (20 mM), 25° C.; read-out: Solubility at pH 6.8
# Method: The compound was diluted with acetonitrile to 100 mL. The solution was shook for 2 minutes and left for 30 minutes at 25° C. After standing for 30 minutes, precipitate was formed in the bottom of the EP. The solutions was filtered through 0.2 um membrane filter, and then diluted by 50 times with water. The standard and sample solutions were injected into the HPLC on a Shim-Pack CLC-ODS C18 column (150 mm×6.0 mm, 5 um) with the same volume. […]
Entries annotated with measured solubility at 30 min

>  <molecule>
C#Cc1cccc(Nc2ncnc3cc(O[C@H]4CCOC4)c(NC(=O)/C=C/CN(C)C)cc23)c1 [Compound 13]

>  <solubility at 30 min [µg/mL]>
150

$$$$
>  <molecule>
C#Cc1cccc(Nc2ncnc3cc(O[C@H]4CCOC4)c(NC(=O)/C=C/CN(CC)CC)cc23)c1 [Compound 20]

>  <solubility at 30 min [µg/mL]>
3370

$$$$

###

# tested.system: EGFR (T790M/L858R) (Homo sapiens (Human), UniProt P00533, L858R/T790M)
# Sequence (P00533 25-1210 T790M/L858R): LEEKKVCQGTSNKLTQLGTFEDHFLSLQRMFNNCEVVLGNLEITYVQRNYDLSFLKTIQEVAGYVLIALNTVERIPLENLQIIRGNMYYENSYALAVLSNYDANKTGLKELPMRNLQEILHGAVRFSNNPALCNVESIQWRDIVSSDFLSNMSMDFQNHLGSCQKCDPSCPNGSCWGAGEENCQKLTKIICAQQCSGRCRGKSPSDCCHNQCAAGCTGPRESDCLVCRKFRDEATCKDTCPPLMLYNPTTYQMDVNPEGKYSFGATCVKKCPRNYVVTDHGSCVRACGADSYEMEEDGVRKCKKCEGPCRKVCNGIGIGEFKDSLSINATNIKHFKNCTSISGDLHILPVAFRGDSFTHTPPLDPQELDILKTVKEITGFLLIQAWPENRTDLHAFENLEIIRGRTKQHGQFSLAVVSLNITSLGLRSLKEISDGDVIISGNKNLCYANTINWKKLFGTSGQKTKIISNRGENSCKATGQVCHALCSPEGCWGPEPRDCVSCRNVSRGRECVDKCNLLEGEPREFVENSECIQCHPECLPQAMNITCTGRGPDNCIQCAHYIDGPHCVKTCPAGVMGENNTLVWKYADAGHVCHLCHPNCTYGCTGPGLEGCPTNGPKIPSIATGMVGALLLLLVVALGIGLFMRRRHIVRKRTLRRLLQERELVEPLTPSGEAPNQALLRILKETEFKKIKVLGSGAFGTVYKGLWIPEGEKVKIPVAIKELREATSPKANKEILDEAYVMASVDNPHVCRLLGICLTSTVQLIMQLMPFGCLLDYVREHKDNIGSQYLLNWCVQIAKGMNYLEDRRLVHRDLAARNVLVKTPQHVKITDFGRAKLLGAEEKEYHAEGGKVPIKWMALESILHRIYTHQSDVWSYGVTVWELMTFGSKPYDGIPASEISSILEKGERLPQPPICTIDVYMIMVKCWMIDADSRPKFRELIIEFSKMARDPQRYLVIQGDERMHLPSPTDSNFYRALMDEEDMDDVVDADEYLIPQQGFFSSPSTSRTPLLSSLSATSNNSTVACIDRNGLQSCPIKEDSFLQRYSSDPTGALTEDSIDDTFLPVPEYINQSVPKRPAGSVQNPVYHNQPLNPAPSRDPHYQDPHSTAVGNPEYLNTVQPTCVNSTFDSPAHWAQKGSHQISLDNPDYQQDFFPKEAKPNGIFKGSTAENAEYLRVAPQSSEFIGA
# test.description: In vitro EGFR (T790M/L858R) kinase activity inhibition assay (Kinase-Glo Plus luminescence)
# Format: biochemical
# condition: 10 μM ATP, read-out: potency (IC50), enzyme assay (EGFR/T790M)
# Procedure: 2. […] It measures kinase activity by quantitating the amount of ATP remaining in solution following a kinase reaction. […] Luminescence signal was measured using a BioTek Synergy 2 microplate reader. 3. […] The luminescence data were analyzed using the computer software, Graphpad Prism. […] The IC50 value was determined by the concentration causing a half-maximal percent activity.
pIC50: −log10 of the molar value.
value.type: pIC50

>  <compound>
C#Cc1cccc(Nc2ncnc3cc(O[C@H]4CCOC4)c(NC(=O)/C=C/CN(C)C)cc23)c1 [Compound 13]

>  <readout.value>
> 7.00

$$$$
